- PROCEDURE_SUMMARY: PET hydrolysis product formed (TPA+MHET+BHET, UV-Vis) per mg enzyme (mmol/mg enzyme); higher = more PET depolymerisation activity; extreme values may be limits of the assay
- EXPERIMENTAL_CONTEXT: PET substrate: aFilm; 70 °C; pH 5.5; 2 h
Consider the following sequences; for each one, report its PET hydrolysis product formed.
Answers are plain numbers.

List PET hydrolysis product formed for every entry below, keeping the order given.
1. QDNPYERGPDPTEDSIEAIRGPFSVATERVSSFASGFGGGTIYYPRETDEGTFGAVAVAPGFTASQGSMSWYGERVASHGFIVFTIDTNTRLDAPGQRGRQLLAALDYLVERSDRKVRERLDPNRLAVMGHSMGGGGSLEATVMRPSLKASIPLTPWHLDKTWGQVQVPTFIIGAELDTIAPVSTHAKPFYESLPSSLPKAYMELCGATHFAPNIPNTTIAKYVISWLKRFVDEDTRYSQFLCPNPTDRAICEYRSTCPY [Cut190*SS]
2. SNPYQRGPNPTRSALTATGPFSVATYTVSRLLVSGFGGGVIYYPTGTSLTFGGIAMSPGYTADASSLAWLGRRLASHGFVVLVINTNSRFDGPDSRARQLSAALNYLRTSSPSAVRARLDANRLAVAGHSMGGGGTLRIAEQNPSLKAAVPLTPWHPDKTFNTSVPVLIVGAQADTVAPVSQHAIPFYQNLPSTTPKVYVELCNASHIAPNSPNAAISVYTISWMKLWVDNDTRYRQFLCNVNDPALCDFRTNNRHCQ [LCC-ICCG I6M]

Result:
0
0.0242

List PET hydrolysis product formed for every entry below, keeping the order given.
1. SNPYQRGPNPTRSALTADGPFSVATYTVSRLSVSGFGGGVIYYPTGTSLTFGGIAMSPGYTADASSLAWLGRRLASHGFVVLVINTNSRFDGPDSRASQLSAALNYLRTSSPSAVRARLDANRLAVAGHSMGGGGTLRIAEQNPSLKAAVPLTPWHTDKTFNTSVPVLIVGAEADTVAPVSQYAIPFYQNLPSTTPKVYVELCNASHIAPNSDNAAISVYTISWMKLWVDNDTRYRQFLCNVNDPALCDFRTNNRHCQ [LCC-A2]
2. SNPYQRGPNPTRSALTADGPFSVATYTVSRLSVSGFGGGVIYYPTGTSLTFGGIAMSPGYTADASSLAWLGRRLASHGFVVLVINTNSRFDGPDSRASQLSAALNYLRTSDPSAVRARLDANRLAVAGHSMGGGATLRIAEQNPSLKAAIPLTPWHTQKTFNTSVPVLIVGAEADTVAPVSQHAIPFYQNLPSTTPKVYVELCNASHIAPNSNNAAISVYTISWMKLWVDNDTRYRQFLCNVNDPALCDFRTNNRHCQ [LCC-ICCG DAQI]
3. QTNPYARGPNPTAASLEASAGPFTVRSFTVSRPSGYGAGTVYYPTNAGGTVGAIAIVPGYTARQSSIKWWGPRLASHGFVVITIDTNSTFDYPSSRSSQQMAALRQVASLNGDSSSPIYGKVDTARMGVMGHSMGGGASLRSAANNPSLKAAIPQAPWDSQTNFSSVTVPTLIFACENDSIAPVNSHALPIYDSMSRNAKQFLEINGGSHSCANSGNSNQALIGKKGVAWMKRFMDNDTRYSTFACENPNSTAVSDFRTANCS [DuraPETase]

Result:
1: 0.0749; 2: 0.0394; 3: 0
